These data points were gathered from patent US5574062A.

Target Under Test: 12-lipoxygenase (Rattus norvegicus, UniProt F1LQ70)
Construct: The platelets were then sonicated at 4° C. and centrifuged at 100,000×g for 30 minutes to obtain a supernatant as a 12-lipoxygenase enzyme solution; from tissue; host or cells: Sprague Dawley rat platelets (from aortic blood), sonicated, 100,000 x g supernatant
Sequence (F1LQ70 whole entry): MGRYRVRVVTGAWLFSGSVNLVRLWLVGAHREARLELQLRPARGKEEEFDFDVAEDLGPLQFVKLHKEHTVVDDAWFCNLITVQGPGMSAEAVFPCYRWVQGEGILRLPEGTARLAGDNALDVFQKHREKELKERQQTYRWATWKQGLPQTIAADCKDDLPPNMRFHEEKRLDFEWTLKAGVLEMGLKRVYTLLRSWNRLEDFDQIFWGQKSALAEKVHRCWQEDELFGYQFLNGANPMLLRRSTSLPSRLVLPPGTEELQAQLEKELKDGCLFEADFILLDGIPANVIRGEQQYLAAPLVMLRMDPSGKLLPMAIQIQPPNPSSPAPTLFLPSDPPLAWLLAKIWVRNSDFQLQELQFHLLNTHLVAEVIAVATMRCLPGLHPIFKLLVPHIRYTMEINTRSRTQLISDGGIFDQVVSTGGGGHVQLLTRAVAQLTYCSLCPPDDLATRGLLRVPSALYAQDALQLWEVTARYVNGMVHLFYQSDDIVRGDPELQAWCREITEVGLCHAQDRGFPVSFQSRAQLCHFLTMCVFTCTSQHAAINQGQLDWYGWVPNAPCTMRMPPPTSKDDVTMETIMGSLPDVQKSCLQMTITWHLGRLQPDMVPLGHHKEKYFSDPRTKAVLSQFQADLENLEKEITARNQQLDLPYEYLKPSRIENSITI
Assay Explanation: 12-lipoxygenase inhibition assay (rat platelet supernatant, arachidonic acid, HPLC of 12-HETE)
Type: biochemical, Sprague Dawley male rat (platelets)
Measurement Context: Test Example 2, Table 2; read-out: IC50 value of 12-lipoxygenase
Experimental Endpoint: IC50 (nM)

QUERY: Provide 12-lipoxygenase (Rattus norvegicus, UniProt F1LQ70) IC50 reading for O=c1oc2cc(O)c(O)cc2cc1-c1ccccc1 [Example 6, 3-phenyl-6,7-dihydroxycoumarin] .
RESULT: 16

I = Cc1ccc(-c2cc3ccc(O)c(O)c3oc2=O)o1
II = O=c1oc2cc(O)c(O)cc2cc1-c1cccc(Cl)c1 [Example 9, 3-(3-chlorophenyl)-6,7-dihydroxycoumarin]
III = Cc1c(-c2ccc(Cl)cc2)c(=O)oc2cc(O)c(O)cc12
IV = O=c1oc2cc(O)c(O)cc2cc1-c1ccsc1
QUERY: Let's sort these by IC50, smallest first. Go ahead? Respond with the label ranking, as requested.
RESULT: II, III, I, IV
